# Assayed system: Protein kinase C beta type (Homo sapiens) (UniProt P05771)
# Sequence (P05771 2-671 limits assumed): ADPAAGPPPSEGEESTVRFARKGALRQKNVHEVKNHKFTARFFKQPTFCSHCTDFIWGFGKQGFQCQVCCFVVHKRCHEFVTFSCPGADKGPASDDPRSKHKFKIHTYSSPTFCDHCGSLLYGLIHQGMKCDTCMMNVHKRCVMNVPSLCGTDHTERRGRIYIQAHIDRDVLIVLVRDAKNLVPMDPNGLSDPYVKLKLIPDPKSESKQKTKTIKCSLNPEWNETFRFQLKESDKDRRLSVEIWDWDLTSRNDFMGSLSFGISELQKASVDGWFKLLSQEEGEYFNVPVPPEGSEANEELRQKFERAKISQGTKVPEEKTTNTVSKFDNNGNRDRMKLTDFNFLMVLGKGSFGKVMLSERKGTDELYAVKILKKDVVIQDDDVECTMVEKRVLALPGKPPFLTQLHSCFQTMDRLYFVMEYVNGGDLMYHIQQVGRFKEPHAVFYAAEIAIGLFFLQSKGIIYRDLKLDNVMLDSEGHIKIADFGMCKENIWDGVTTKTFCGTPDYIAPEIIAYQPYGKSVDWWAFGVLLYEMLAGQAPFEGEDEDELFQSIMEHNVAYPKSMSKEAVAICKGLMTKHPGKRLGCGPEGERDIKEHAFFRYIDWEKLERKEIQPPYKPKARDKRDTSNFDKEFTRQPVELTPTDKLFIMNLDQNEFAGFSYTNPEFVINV
# Measurement setup: at 0.1 µM
# Description: GSK_PKIS: PKC-beta1 (splice variant) mean inhibition at 0.1 uM [Nanosyn]
Exercise: state measured inhibition for each of the compounds provided.
Answers are plain numbers, in %.

Field: example entries. Status: answers known.
The recorded inhibition for entry N#Cc1ccc(Oc2nccc(-c3c(-c4ccc(F)cc4)ncn3C3CCNCC3)n2)cc1 equals 1.45

Reported inhibition of CS(=O)(=O)CCNCc1cc(-c2cc3c(Nc4ccc(OCc5cccc(F)c5)c(Cl)c4)ncnc3s2)cs1 : 0.43

// inhibition value for CS(=O)(=O)CCNCc1ccc(-c2ccc3ncnc(Nc4ccc(OCc5ccccc5)c(Br)c4)c3c2)o1 : 0.95

Reported inhibition of COc1cc2ncn(-c3cc(OCc4cccs4)c(C(N)=O)s3)c2cc1OC : 5.39

Batch lookup, inhibition per entry.
1. O=C(NCC1CC1)c1ccc(-c2cccc(C(=O)NC3CC3)c2)cc1
2. C[C@@H](Oc1cc(-n2cnc3ccc(OCC4CCN(C)CC4)cc32)sc1C(N)=O)c1ccccc1Cl
3. Fc1ccc(-c2ncn(C3CCNCC3)c2-c2ccnc(Oc3ccc(F)c(F)c3)n2)cc1
4. COC(=O)Nc1nc2ccc(Sc3ccc(NC(=O)Nc4cc(C(F)(F)F)ccc4F)cc3)cc2[nH]1
5. O=C1Nc2ccc(I)cc2C1=Cc1cc(Br)c(O)c(Br)c1
6. Fc1ccc(-c2c(-c3ccncc3)nc3n2CCS3)cc1

Response:
[-0.06, 1.4, -0.22, 0.84, 0.25, 2.56]

----------
# Assayed system: Serine/threonine-protein kinase PAK 3 (Homo sapiens);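 note: reported percentage is a mean inhibition value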
# Measurement setup: at 1 µM
Value kind: inhibition (%)
One number for each entry, in %.

# annotated cases, reported inhibition shown
// recorded inhibition for NC(=O)Cc1ccccc1Oc1nccc(-c2c(-c3ccc(F)cc3)ncn2C2CCNCC2)n1 : 3.36

Reported inhibition ( COc1ccc(C2=C(N3CCc4ccccc43)C(=O)NC2=O)cc1 ) = 5.37

Lab note: measured inhibition of COc1cccc(/C=N/Nc2ncnc3c2cnn3-c2cccc(OC)c2)c1 was 4.34

The value of inhibition measured for the compound NS(=O)(=O)c1ccc(N/N=C2\C(=O)Nc3ccc(-c4cnco4)cc32)cc1 turned out to be 2.52

Summary for this compound, CCc1nccc2c1nc(-c1nonc1N)n2CC : inhibition is 1.09

The compound listed as NS(=O)(=O)c1ccc(N/N=C2\C(=O)Nc3ccc(C(=O)NCCCn4ccnc4)cc32)cc1 has a reported inhibition of 5.04

Hello, I would appreciate it if you could give inhibition for each entry below.
1. O=C(Nc1ccc(Oc2ccc3[nH]c(NC(=O)c4ccccc4)nc3c2)cc1)Nc1cc(C(F)(F)F)ccc1F
2. CCS(=O)(=O)c1ccc(OC)c(Nc2ncc(-c3ccccc3Cl)o2)c1
3. C[C@@H](Oc1cc(-n2cnc3ccc(OC4CCN(C)CC4)cc32)sc1C(N)=O)c1ccccc1Cl
4. CN(C)c1ccc2c(c1)/C(=C/Nc1ccc(S(N)(=O)=O)cc1)C(=O)N2

Response:
[2.99, 0.98, 10.3, 2.05]

----------
Would you kindly list inhibition for each of these compounds?
# Assayed system: MAP kinase-activated protein kinase 5 (Homo sapiens) (UniProt Q8IW41);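 note: mean inhibition of PRAK measured in the GSK PKIS screen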
# Sequence (Q8IW41 whole entry): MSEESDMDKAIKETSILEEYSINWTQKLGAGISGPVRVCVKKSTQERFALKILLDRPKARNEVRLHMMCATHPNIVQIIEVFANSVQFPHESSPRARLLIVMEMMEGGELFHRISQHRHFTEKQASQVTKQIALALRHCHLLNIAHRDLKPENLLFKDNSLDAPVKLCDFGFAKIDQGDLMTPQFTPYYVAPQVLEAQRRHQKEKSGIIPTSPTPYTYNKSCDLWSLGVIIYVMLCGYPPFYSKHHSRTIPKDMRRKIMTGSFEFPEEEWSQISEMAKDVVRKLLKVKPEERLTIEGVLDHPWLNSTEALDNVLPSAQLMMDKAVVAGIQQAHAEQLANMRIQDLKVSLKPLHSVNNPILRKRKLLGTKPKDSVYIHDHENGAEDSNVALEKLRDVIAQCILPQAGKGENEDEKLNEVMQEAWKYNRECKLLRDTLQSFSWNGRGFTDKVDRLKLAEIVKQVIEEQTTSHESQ
# Measurement setup: at 1 µM
Numbers only, in %.

Known results for compounds:
Log: MAP kinase-activated protein kinase 5 (Homo sapiens) (UniProt Q8IW41), compound COc1ccc2cc(-c3c(-c4ccncc4)nc(-c4ccc(S(C)(=O)=O)cc4C)n3C)ccc2c1 , inhibition = 2.64

# Fc1ccc(-c2ncn(CCCN3CCOCC3)c2-c2ccncc2)cc1 with MAP kinase-activated protein kinase 5 (Homo sapiens) (UniProt Q8IW41): inhibition is -1.42

Measured inhibition (MAP kinase-activated protein kinase 5 (Homo sapiens) (UniProt Q8IW41)), entry CS(=O)(=O)CCNCc1ccc(-c2ccc3ncnc(Nc4ccc(OCc5ccccc5)c(Br)c4)c3c2)o1 : 2.06

Entry O=C1Nc2ccc(I)cc2C1=Cc1cc(Br)c(O)c(Br)c1 , tested on MAP kinase-activated protein kinase 5 (Homo sapiens) (UniProt Q8IW41), has a reported inhibition of 1.78

Now let's try a different one.
Lab note: compound O=C(Nc1ccc(Oc2ccc3[nH]c(NC(=O)c4ccccc4)nc3c2)cc1)Nc1cc(C(F)(F)F)ccc1F tested on MAP kinase-activated protein kinase 5 (Homo sapiens) (UniProt Q8IW41); recorded inhibition was 0.98

----------
# Assayed system: Protein kinase C beta type (Homo sapiens)
# Measurement setup: at 1 µM
# Description: GSK_PKIS: PKC-beta2 (splice variant) mean inhibition at 1 uM [Nanosyn]
Value kind: inhibition (%)
Answers are plain numbers, in %.

Simply: CNC(=O)c1cncc(/C=C/c2c(C)cccc2C)c1 , Protein kinase C beta type (Homo sapiens), inhibition = 1.01

Simply: Fc1ccc(-c2nc3n(c2-c2ccncc2)CCS3)cc1 , Protein kinase C beta type (Homo sapiens), inhibition = 4.27

Tested system Protein kinase C beta type (Homo sapiens); inhibition recorded for O=C(Nc1ccc(Oc2ccc3[nH]c(NC(=O)c4ccccc4)nc3c2)cc1)Nc1cc(C(F)(F)F)ccc1F was 4.95

Entry NS(=O)(=O)c1ccc(Nc2cc(-c3ccc(O)c(F)c3)n[nH]2)cc1 ; assay system Protein kinase C beta type (Homo sapiens); inhibition recorded at 0.72

The recorded inhibition with Protein kinase C beta type (Homo sapiens) for CN(c1ccc(NC(=O)Nc2c(Cl)cccc2Cl)cc1)c1ccnc(Nc2cccc(CS(C)(=O)=O)c2)n1 was 3.24

Working through the 3 compounds below one at a time, give inhibition for each.
1. CCC(=O)Nc1ccc(C)c(-c2ccc(C(=O)NCC3CC3)cc2)c1
2. Fc1ccc(-c2c(-c3ccncc3)nc3n2CCS3)cc1
3. O=C(Nc1n[nH]c2cc(-c3cc(F)ccc3F)ccc12)C1CC1

Response:
1.48
3.63
4.18

----------
# Assayed system: Serine/threonine-protein kinase 3 (Homo sapiens);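 note: reported value is the mean percent inhibition of MST2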
# Sequence (whole entry): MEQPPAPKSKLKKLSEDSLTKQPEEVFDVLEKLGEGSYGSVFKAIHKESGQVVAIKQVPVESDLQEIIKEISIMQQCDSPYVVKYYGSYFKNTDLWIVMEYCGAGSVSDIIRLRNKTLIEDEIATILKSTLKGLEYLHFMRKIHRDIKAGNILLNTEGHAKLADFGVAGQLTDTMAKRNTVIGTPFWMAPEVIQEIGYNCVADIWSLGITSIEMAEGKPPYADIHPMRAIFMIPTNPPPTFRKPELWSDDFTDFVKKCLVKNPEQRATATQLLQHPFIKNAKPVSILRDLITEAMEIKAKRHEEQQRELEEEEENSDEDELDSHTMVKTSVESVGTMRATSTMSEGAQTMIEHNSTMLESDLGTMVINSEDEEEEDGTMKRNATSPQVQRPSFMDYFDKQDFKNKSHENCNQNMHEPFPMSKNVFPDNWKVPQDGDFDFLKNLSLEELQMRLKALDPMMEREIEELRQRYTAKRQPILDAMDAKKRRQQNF
# Measurement setup: at 0.1 µM
Answer each item with its documented inhibition.
Give bare numbers, in %.

Worked cases, inhibition given:
So, FC(F)(F)c1cccc(Nc2nccc(-c3cnn4nc(-c5ccccc5)ccc34)n2)c1 ? Its inhibition was 3.94

inhibition in this record for Nc1nccc(-c2c(-c3ccc(F)cc3)ncn2C2CCC(O)CC2)n1 (configuration not stated) : -0.05

Record c1ccc(-c2n[nH]cc2-c2ccnc(-c3ccc(OCCN4CCOCC4)cc3)c2)nc1 . Reported inhibition: 2.06

The molecule listed as COc1cc(Nc2ncc3c(C)nc(-c4cccc(C(F)(F)F)c4)n3n2)cc(OC)c1OC shows inhibition equal to 6.69

Short answer for CS(=O)(=O)CCNCc1ccc(-c2ccc3ncnc(Nc4ccc(OCc5ccccc5)c(Br)c4)c3c2)o1 : inhibition was 4.32

Record O=C(Nc1n[nH]c2cc(-c3cc(F)ccc3F)ccc12)C1CC1 . Reported inhibition: 2.46

Field inhibition (entry NC(=O)c1cc(-c2ccc(F)cc2)cc(-c2ccncc2)c1N ) reads 4.31

Entry c1ccc(Oc2ccc(Nc3ncc(-c4ccccc4)o3)cc2)cc1 ; inhibition = 0.33

Input COc1cc(Nc2ncc(-c3ccccc3)o2)cc(OC)c1OC . Output inhibition: -4.02

Form: molecule = CNC(=O)c1cncc(/C=C/c2c(C)cccc2C)c1 ; inhibition = 2.27

For the 2 molecules below, give their inhibition values.
1. O=C1Nc2ccccc2/C1=C/Nc1ccc(-n2cncn2)cc1
2. Fc1ccc(-c2ncn(CCCN3CCOCC3)c2-c2ccncc2)cc1

Response:
1. 9.7
2. -0.13

----------
# Assayed system: cGMP-dependent protein kinase 2 (Homo sapiens) (UniProt Q13237);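 note: mean inhibition of PRKG2 from the GSK PKIS screen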
# Sequence (whole entry): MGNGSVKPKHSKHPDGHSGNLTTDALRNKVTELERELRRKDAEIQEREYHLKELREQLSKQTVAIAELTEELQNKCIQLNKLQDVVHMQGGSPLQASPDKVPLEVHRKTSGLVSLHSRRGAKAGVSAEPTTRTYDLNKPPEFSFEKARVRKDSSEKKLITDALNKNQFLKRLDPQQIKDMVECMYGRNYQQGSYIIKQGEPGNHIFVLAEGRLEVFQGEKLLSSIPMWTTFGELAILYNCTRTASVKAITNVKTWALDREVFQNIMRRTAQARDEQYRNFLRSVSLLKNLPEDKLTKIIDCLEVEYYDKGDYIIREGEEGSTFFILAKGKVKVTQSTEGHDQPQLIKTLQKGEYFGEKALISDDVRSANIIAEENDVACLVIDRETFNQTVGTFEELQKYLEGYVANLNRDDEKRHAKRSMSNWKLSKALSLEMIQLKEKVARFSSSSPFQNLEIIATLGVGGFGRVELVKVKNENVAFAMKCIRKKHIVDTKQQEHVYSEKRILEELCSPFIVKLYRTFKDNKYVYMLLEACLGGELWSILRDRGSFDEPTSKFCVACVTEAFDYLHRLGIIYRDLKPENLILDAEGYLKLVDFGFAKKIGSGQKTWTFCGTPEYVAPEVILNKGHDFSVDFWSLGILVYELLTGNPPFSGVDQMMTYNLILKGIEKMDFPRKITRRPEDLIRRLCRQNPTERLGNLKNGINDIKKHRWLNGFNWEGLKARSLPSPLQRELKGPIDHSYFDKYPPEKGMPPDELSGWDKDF
# Measurement setup: at 1 µM
Kindly return MET if reported inhibition is no lower than 3%; return NOT MET if it is lower.

Query: Item CCN(CC)Cc1ccc(Nc2nccc(-c3cnn4ncccc34)n2)cc1 with inhibition of 3% or above?
Response: MET

Query: Record COc1cc(Nc2ncc3c(C)nc(-c4cccc(Oc5ccccc5)c4)n3n2)cc(OC)c1OC ; criterion: inhibition no lower than 3%. Met?
Response: NOT MET

Query: Item O=C(NCC1CC1)c1ccc(-c2cccc(C(=O)NC3CC3)c2)cc1 with inhibition of 3% or above?
Response: NOT MET

Query: Confirm if inhibition reported for the compound NC(=O)Cc1ccccc1Oc1nccc(-c2c(-c3ccc(F)cc3)ncn2C2CCNCC2)n1 is 3% or above.
Response: MET

Query: Hi, just wondering whether O=C1Nc2ccccc2/C1=C/Nc1ccc(-n2cncn2)cc1 shows inhibition of 3% or higher.
Response: MET

Query: Please tell me: is the compound NC(=O)c1cc(-c2ccc(F)cc2)cc(-c2ccncc2)c1N at or over 3% in terms of inhibition?
Response: NOT MET

Query: Has CCC(=O)Nc1ccc(C)c(-c2ccc(C(=O)NCC3CC3)cc2)c1 a recorded inhibition greater than or equal to 3%?
Response: MET

Query: Answer whether inhibition of C#Cc1cccc(Nc2ncnc3ccc(OCCCCNCCS(C)(=O)=O)cc23)c1 is greater than or equal to 3%.
Response: MET
